This collection of values is drawn from patent US20090298167A1.

- test-target: T1, cynomolgus monkey IL-21R expressed on CHO cells (cynomolgus monkey)
- T1 construct: whole, on cells
- assay-notes: cell ELISA on transfected CHO cells, 13 nM IgG
readout: A450 at 13 nM Ab in cell ELISA (A450)
Write it as a number; the unit A450 goes unstated.

These solved cases illustrate the format of a correct answer.
AbA (antibody, human IgG1, V domains shown, Full-length human IgG1 / human lambda, transient, conditioned medium; Framework limits derived; also called VHP/VL2) VH: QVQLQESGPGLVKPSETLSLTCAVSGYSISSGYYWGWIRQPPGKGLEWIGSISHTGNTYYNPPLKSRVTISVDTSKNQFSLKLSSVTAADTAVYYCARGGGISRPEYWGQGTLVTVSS VL: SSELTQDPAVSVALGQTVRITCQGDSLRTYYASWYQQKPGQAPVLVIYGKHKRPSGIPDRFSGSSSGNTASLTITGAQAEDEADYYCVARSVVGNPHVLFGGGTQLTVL | 1.35
AbK (antibody, human IgG1, V domains shown, Full-length human IgG1 / human lambda, transient, conditioned medium; Framework limits derived; also called VH3/VL3) VH: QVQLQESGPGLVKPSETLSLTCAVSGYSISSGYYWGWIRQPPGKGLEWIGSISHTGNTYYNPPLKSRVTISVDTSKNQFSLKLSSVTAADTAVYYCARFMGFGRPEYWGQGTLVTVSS VL: SSELTQDPAVSVALGQTVRITCQGDSLRTYYASWYQQKPGQAPVLVIYGKHKRPSGIPDRFSGSSSGNTASLTITGAQAEDEADYYCVSRAVVGNPHVLFGGGTQLTVL | 1.34
AbF (antibody, human IgG1, V domains shown, Full-length human IgG1 / human lambda, transient, conditioned medium; Framework limits derived; also called VHP/VL17) VH: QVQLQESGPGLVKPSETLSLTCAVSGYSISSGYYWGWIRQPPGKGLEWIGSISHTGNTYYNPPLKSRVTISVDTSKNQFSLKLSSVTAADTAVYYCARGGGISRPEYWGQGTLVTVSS VL: SSELTQDPAVSVALGQTVRITCQGDSLRTYYASWYQQKPGQAPVLVIYGKHKRPSGIPDRFSGSSSGNTASLTITGAQAEDEADYYCSTRSRKGNPHVLFGGGTQLTVL | 1.46
AbI (antibody, human IgG1, V domains shown, Full-length human IgG1 / human lambda, transient, conditioned medium; Framework limits derived; also called VHP/VL24) VH: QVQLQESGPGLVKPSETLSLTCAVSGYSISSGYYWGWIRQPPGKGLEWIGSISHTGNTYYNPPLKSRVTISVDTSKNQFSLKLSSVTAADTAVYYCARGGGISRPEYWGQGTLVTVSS VL: SSELTQDPAVSVALGQTVRITCQGDSLRTYYASWYQQKPGQAPVLVIYGKHKRPSGIPDRFSGSSSGNTASLTITGAQAEDEADYYCIARSNKGNPHVLFGGGTQLTVL | 1.21

Next item in the queue.
Q: // lookup A450 at 13 nM Ab in cell ELISA for AbD (antibody, human IgG1, V domains shown, Full-length human IgG1 / human lambda, transient, conditioned medium; Framework limits derived; also called VHP/VL13) VH: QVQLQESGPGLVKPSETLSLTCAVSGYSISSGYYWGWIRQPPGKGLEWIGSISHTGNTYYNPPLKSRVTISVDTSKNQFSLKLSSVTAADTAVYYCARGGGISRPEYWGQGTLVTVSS VL: SSELTQDPAVSVALGQTVRITCQGDSLRTYYASWYQQKPGQAPVLVIYGKHKRPSGIPDRFSGSSSGNTASLTITGAQAEDEADYYCVTRNRYGNPHVLFGGGTQLTVL
Result: 1.38
